// data source = ChEMBL document CHEMBL1128757

- SYSTEM_TESTED: Endothelin-1 receptor (Sus scrofa, UniProt Q29010)
- Sequence (Q29010 whole entry): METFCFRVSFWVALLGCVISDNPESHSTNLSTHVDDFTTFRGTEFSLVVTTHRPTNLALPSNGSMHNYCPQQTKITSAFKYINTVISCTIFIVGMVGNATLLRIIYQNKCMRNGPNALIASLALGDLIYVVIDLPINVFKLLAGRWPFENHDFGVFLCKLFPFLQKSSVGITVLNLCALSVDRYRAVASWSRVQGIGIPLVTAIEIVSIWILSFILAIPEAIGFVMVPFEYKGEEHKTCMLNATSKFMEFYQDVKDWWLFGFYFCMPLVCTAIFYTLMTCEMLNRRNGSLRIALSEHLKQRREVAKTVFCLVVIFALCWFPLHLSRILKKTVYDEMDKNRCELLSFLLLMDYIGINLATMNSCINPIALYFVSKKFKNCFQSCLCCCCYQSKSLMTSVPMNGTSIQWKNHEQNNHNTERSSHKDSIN
- ASSAY_NOTES: Binding affinity against ETA receptor in porcine aortic smooth muscle membrane
pIC50: −log10 of the molar value.
OBSERVATION_TYPE: pIC50

Use the examples below as a reference point.
- CC(C)C[C@H](NC(=O)Nc1cccc(Cl)c1)C(=O)NC(Cc1c[nH]c2ccccc12)C(=O)NCCC(=O)O (single isomer, unassigned): 5.68
- Cc1cccc(NC(=O)N[C@@H](CC(C)C)C(=O)NC(Cc2c[nH]c3ccccc23)C(=O)NCCC(=O)O)c1 (single isomer, unassigned): 5.68
- CC(C)C[C@H](NC(=O)CC1CCCC1)C(=O)NC(Cc1c[nH]c2ccccc12)C(=O)NCCC(=O)O (single isomer, unassigned): 6.01
- CC(C)C[C@H](NC(=O)OC(C)(C)C)C(=O)NC(Cc1c[nH]c2ccccc12)C(=O)NCCC(=O)O (single isomer, unassigned): 6.38

P = CC(C)C[C@H](NC(=O)NC(C)(C)C)C(=O)NC(Cc1c[nH]c2ccccc12)C(=O)NCCC(=O)O (single isomer, unassigned)
Q = CC(C)C[C@H](NC(=O)Cc1cccs1)C(=O)NC(Cc1c[nH]c2ccccc12)C(=O)NCCC(=O)O (single isomer, unassigned)
R = CC(C)C[C@H](NC(=O)CC(C)(C)C)C(=O)NC(Cc1c[nH]c2ccccc12)C(=O)NCCC(=O)O (single isomer, unassigned)
S = CC(C)C[C@H](NC(=O)NCc1ccccc1)C(=O)NC(Cc1c[nH]c2ccccc12)C(=O)NCCC(=O)O (single isomer, unassigned)
[ask] Please put the entries in order of rising pIC50. Rank them, then answer with their labels in that order.
[reply] R, S, Q, P
(R: 5.17, S: 5.49, Q: 6.27, P: 6.64)

---

- SYSTEM_TESTED: UniProt:Q29010
- ASSAY_NOTES: Binding affinity against ETA receptor in porcine aortic smooth muscle membrane was determined
OBSERVATION_TYPE: IC50 (µM)

* CC(C)C[C@H](NC(=O)[C@H](N)C(C)C)C(=O)N[C@H](Cc1c[nH]c2ccccc12)C(=O)N[C@H](CC(=O)O)C(=O)O | 32

1 = CC(C)CC(=O)N[C@@H](CC(C)C)C(=O)N[C@H](Cc1c[nH]c2ccccc12)C(=O)N[C@H](CC(=O)O)C(=O)O
2 = CC(C)CC(=O)N[C@@H](CC(C)C)C(=O)NC(Cc1c[nH]c2ccccc12)C(=O)NCCC(=O)O (single isomer, unassigned)
[ask] Between 1 and 2 , whose measured IC50 reads higher? To answer, give the label that identifies your chosen option.
[reply] 1
(1: 25 µM, 2: 3.9 µM)
